Please provide measured PGE2 EC50 with compound for the entries that follow.
biological target: Prostaglandin E2 receptor EP2 subtype (Homo sapiens) (UniProt P43116); assay: compounds shifting PGE2 potency at EP2 – cell-based, human EP2, PGE2 EC50 shift, dose response (AID 1421); details: EP2-expressing cells, PGE2 EC50 shift by compound; at 20 µM
Sequence (P43116 whole entry, looked up): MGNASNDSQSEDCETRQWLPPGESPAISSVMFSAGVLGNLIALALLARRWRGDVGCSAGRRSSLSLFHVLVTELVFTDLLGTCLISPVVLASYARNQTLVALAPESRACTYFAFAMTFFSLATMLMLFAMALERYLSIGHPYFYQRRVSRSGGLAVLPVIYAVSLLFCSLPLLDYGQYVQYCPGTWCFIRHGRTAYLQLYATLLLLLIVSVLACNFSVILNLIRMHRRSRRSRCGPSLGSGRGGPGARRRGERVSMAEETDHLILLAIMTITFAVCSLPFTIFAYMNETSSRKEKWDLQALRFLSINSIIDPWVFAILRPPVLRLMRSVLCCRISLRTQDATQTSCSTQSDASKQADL
Hit rate of the full screen: of about 1,300 compounds, about 140 (11%) were called active. Only a sample is shown. Potency and affinity values are given separately.

Worked cases, answers included:
[[record]]
molecule = "CCCCNCC(=O)Nc1sc(C)c(C)c1C(=O)OCC"
result = "0.33 nM (inactive)"

[[record]]
molecule = "CCOC(=O)c1c(NC(=O)CN2CCCCC2)sc2c1CCN(C(=O)OCC)C2"
result = "0.83 nM (inactive)"

[[record]]
molecule = "CCOC(=O)c1c(NC(=O)c2ccoc2C)sc(C(=O)N(C)C)c1C"
result = "0.6 nM (inactive)"

[[record]]
molecule = "O=C(CO/N=C/c1ccccc1)N1c2ccccc2Oc2ccccc21"
result = "0.59 nM (inactive)"

[[record]]
molecule = "CCOC(=O)c1c(NC(=O)Cn2nnc3ccccc32)sc2c1CCC(C)C2 (stereo unspecified)"
result = "0.53 nM (inactive)"

[[record]]
molecule = "CCOC(=O)c1c(C=O)c(C)n(Cc2ccc(C)cc2)c1C"
result = "0.36 nM (inactive)"

[[record]]
molecule = "S=c1[nH]nc(C2CCCCC2)n1Cc1ccccc1"
result = "0.39 nM (inactive)"

[[record]]
molecule = "Nn1cnc2c(c1=O)C1(CCCCC1)Cc1ccccc1-2"
result = "0.34 nM (inactive)"

[[record]]
molecule = "O=C(COc1ccccc1)Nc1ccccc1N1CCN(c2ccccc2)CC1"
result = "0.2 nM (inactive)"

[[record]]
molecule = "CCc1nc2c(cnn2-c2ccc(Cl)cc2)c(=O)n1-c1ccc(OC)cc1"
result = "1.12 nM (inactive)"


Here are 2 molecules. What values of PGE2 EC50 with compound were reported for them?
1. CCN1C(=O)/C(=C2/C=CC=CN2C)SC1=S
2. O=C(COc1cccc2ccccc12)N1c2ccccc2CCc2ccccc21

RESULT:
1: 0.94 nM (inactive); 2: 0.35 nM (inactive)

Here are 3 molecules. What values of PGE2 EC50 with compound were reported for them?
1. O=C(Nc1nc(-c2cccs2)c(-c2ccccc2)s1)c1ccco1
2. O=c1c2c(n3nnnc3n1-c1ccccc1)-c1ccccc1CC21CCCC1
3. COc1ccc(-c2nc(NC(C)=O)sc2-c2ccc(OC)cc2)cc1

RESULT:
1. 0.72 nM (inactive)
2. 0.77 nM (inactive)
3. 0.57 nM (inactive)

Here are 6 molecules. What values of PGE2 EC50 with compound were reported for them?
1. Oc1ccc(/C=N/N(Cc2ccccc2)c2ccccc2)cc1
2. c1ccn(-c2ncnc3sc4c(c23)CCCC4)c1
3. Cc1ccc(-c2nn3c(C)nnc3s2)cc1NCc1c(F)cccc1Cl
4. O=c1cc(N2CCCCC2)c(-c2ccccc2)nn1Cc1ccccc1Cl
5. O=C(O)c1oc(C(=O)O)c(C(=O)O)c1C(=O)O
6. CC1Cc2ccccc2N1CC(=O)NC(c1ccccc1)c1ccccc1 (stereo unspecified)

RESULT:
0.73 nM (inactive)
0.38 nM (inactive)
0.97 nM (inactive)
0.4 nM (inactive)
0.58 nM (inactive)
0.52 nM (inactive)

---

target: Prostaglandin E2 receptor EP2 subtype (Homo sapiens) (UniProt P43116); test: compounds shifting PGE2 potency at EP2 – cell-based, human EP2, PGE2 EC50 shift, dose response (AID 1421); conditions: EP2-expressing cells, PGE2 EC50 shift by compound; at 20 µM
Out of some 1,300 compounds screened, about 140 (11%) were called active. Not all results are given here. Potency and affinity values are given separately.
Measured Property: PGE2 EC50 with compound

Worked cases, answers included:
[[record]]
compound = "CSc1nc(Oc2ccccc2)c2sccc2n1"
measured_property = "PGE2 EC50 with compound"
result = "0.62 nM (inactive)"

[[record]]
compound = "COc1ccc(C2CC(c3cccs3)=NN2C(=O)c2ccc(Br)o2)cc1 (configuration not stated)"
measured_property = "PGE2 EC50 with compound"
result = "0.71 nM (inactive)"

[[record]]
compound = "CCOP(=O)(OCC)c1nc(-c2ccc(C)cc2)oc1NCc1ccccc1"
measured_property = "PGE2 EC50 with compound"
result = "0.46 nM (inactive)"

[[record]]
compound = "O=C(O)COc1cccc(NC(=O)c2ccccc2)c1"
measured_property = "PGE2 EC50 with compound"
result = "1.05 nM (inactive)"

[[record]]
compound = "c1ccc(CCc2cccnc2)nc1"
measured_property = "PGE2 EC50 with compound"
result = "0.8 nM (inactive)"


Here are 2 compounds. What values of PGE2 EC50 with compound were reported for them?
1. Nc1c(C(=O)NCc2ccco2)c2nc3ccccc3nc2n1CCc1ccccc1
2. c1cncc(-c2nc(N3CCOCC3)c3c4c(sc3n2)CCC4)c1

RESULT:
1.38 nM (inactive)
0.72 nM (inactive)

---

molecular target: Prostaglandin E2 receptor EP2 subtype (Homo sapiens); assay: compounds shifting PGE2 potency at EP2 – cell-based, human EP2, PGE2 EC50 shift, dose response (AID 1421); conditions: EP2-expressing cells, PGE2 EC50 shift by compound; at 20 µM
The campaign covered roughly 1,300 compounds. About 140 (11%) were called active. A selection follows. Results with a measured potency or affinity are listed apart.
Measured Property: PGE2 EC50 with compound

Worked cases, answers included:
[[record]]
molecule = "N#CCSc1nc2sc3c(c2c(=O)n1C1CCCCC1)CCCC3"
measured_property = "PGE2 EC50 with compound"
result = "0.32 nM (inactive)"

[[record]]
molecule = "O=S(=O)(c1cccs1)N1CN(Cc2cccs2)c2nc3ccccc3nc21"
measured_property = "PGE2 EC50 with compound"
result = "0.45 nM (inactive)"

[[record]]
molecule = "Cc1ccc(C(=O)OCC(=O)Nc2ccccc2Sc2ccccc2)cc1C"
measured_property = "PGE2 EC50 with compound"
result = "0.26 nM (inactive)"

[[record]]
molecule = "C/C(Cl)=C/Cn1c(SC(C)C)nc2c1c(=O)[nH]c(=O)n2C"
measured_property = "PGE2 EC50 with compound"
result = "0.83 nM (inactive)"

[[record]]
molecule = "C(=N\\N1CCN(C2c3ccccc3-c3ccccc32)CC1)/c1cccnc1"
measured_property = "PGE2 EC50 with compound"
result = "0.43 nM (inactive)"

[[record]]
molecule = "CCOC(=O)C1=NN(c2cccc(C)c2)C2(S1)SC(C(C)=O)=C(C)N2c1ccccc1 (configuration not stated)"
measured_property = "PGE2 EC50 with compound"
result = "0.51 nM (inactive)"

[[record]]
molecule = "FC(F)(F)c1cccc(-c2cc3ccccc3nc2N2CCCC2)c1"
measured_property = "PGE2 EC50 with compound"
result = "0.54 nM (inactive)"

[[record]]
molecule = "Oc1ccc(/C=N/N2CCN(C3c4ccccc4-c4ccccc43)CC2)c(O)c1"
measured_property = "PGE2 EC50 with compound"
result = "0.25 nM (inactive)"


Here are 3 molecules. What values of PGE2 EC50 with compound were reported for them?
1. Cc1nc2ccccn2c1C(=O)CSc1ccc(Cl)cc1Cl
2. CC(=O)c1ccc(S(=O)(=O)NCCCC(=O)NCCc2ccccn2)cc1
3. O=C(CNCC1CCCCC1)Nc1ccccc1N1CCCCC1

RESULT:
5.69 nM (inactive)
0.92 nM (inactive)
0.57 nM (inactive)

Here are 6 molecules. What values of PGE2 EC50 with compound were reported for them?
1. O=C(c1ccc2c(c1)OCO2)N(Cc1cccs1)C1(C(=O)NC2CCCCC2)CCCCC1
2. CSc1nnc(-c2ccc(F)cc2)o1
3. COC(=O)c1sccc1NC(=O)c1cc2c(s1)CCCC2
4. Fc1ccccc1Nc1nc2c(s1)CCc1ccccc1-2
5. COc1ccc(-c2nc3c(c(=O)[nH]c(=O)n3Cc3ccccc3)n2Cc2ccccc2)cc1
6. CC1(C)OC(c2ccccc2)=C/C(=C/C=Nc2ccccc2)O1

RESULT:
1. 0.42 nM (inactive)
2. 1.06 nM (inactive)
3. 0.5 nM (inactive)
4. 0.26 nM (inactive)
5. 0.28 nM (inactive)
6. 0.33 nM (inactive)

---

Please provide measured PGE2 EC50 with compound for the entries that follow.
biological target: Prostaglandin E2 receptor EP2 subtype (Homo sapiens) (UniProt P43116); experiment: compounds shifting PGE2 potency at EP2 – cell-based, human EP2, PGE2 EC50 shift, dose response (AID 1421); conditions: EP2-expressing cells, PGE2 EC50 shift by compound; at 20 µM
Screen size: about 1,300 compounds; about 140 (11%) were called active. A selection follows. Entries with a potency or affinity are not part of this list.

[[record]]
compound = "CN=C1CC(SC)=C1c1ccc(C)cc1"
result = "2680 pM (inactive)"

[[record]]
compound = "CCc1ccccc1NC(=O)/C(=C/c1ccco1)c1ccccc1"
result = "160 pM (inactive)"

[[record]]
compound = "CC1CCCCN1C(=O)/C(=C\\c1ccccc1)c1ccccc1 (centres undefined)"
result = "440 pM (inactive)"


Here are 8 compounds. What values of PGE2 EC50 with compound were reported for them?
1. COc1cccc(/C=N/c2oc(-c3ccccc3)cc2C#N)c1O
2. CCOC(=O)n1c(=O)n(Cc2ccc(Cl)c(Cl)c2)c2ccccc21
3. COc1ccc(C(=O)O)cc1NC(=S)NC(=O)c1ccc(-c2ccc(Cl)cc2)o1
4. CC(C)N(CCNC(=O)c1oc(=O)c2ccccc2c1-c1ccccc1)Cc1ccco1
5. COc1ccc(OC)c(/C=C/C(=O)N2CCCc3ccccc32)c1
6. O=C(Nc1ccccc1Oc1ccccc1)c1ccccc1F
7. CC1(c2ccccc2)CC(C)(C)N(C(=O)C2CCCO2)c2ccccc21 (centres undefined)
8. COc1ccc(C(=O)c2cnc3ccccc3c2-c2ccccc2)cc1

RESULT:
1: 8670 pM (inactive); 2: 310 pM (inactive); 3: 462000 pM (inactive); 4: 810 pM (inactive); 5: 280 pM (inactive); 6: 170 pM (inactive); 7: 390 pM (inactive); 8: 790 pM (inactive)

Numbers sourced from PubChem BioAssay AID1421.
